Let's look at some binders and their measured koff.
target: T1, mouse PCSK9 (mouse, UniProt Q80W65 35-694, limits assumed); assay: SPR Biacore 3000, captured IgG, mPCSK9 injected, pH 7.4
T1 construct: also called mPCSK9; msPCK9
T1 sequence (Q80W65 35-694 limits assumed): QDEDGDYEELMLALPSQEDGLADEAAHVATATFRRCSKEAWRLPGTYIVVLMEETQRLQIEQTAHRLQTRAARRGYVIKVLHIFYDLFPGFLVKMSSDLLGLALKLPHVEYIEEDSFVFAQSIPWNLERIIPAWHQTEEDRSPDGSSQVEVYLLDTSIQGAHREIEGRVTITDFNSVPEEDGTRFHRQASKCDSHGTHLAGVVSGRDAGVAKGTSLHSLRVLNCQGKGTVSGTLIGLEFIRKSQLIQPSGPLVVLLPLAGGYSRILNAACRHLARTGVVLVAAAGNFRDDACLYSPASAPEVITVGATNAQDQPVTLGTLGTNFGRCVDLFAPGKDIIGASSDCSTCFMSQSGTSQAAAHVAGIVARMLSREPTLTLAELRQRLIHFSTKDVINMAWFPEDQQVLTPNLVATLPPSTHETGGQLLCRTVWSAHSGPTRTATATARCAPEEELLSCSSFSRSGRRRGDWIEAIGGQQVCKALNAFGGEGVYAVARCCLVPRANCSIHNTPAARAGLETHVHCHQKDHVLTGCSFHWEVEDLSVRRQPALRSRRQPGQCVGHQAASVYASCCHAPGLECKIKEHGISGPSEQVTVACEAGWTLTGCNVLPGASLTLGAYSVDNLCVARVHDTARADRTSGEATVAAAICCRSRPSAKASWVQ
Report the figure in s⁻¹ without appending any unit label.

Please review the entries below; each comes with its answer.
>>> data_value("5L1724H35 (antibody, V domains shown, Triple histidine mutant of h5A10; Only CDRs printed; Full-length IgG) VH: QVQLVQSGAEVKKPGASVKVSCKASGYTFTSYYMHWVRQAPGQGLEWMGEINPSGGRTNYNEKFKSRVTMTRDTSTSTVYMELSSLRSEDTAVYYCARERPLHAMDYWGQGTTVTVSS VL: DIQMTQSPSSLSASVGDRVTITCKASQDVHTAVAWYQQKPGKAPKLLIYSASHRYTGVPSRFSGSGSGTDFTFTISSLQPEDIATYYCQQRYSTPRTFGQGTKLEIK")
0.00153
>>> data_value("6L21H2335 (antibody, V domains shown) VH: QVQLVQSGAEVKKPGASVKVSCKASGYTFTSYYMHWVRQAPGQGLEWMGEIHPFGGRTNYNEKFKSRVTMTRDTSTSTVYMELSSLRSEDTAVYYCARERPLHASDLWGQGTTVTVSS VL: DIQMTQSPSSLSASVGDRVTITCRASQGISSALAWYQQKPGKAPKLLIYHASYRYTGVPSRFSGSGSGTDFTFTISSLQPEDIATYYCQQRYSLWRTFGQGTKLEIK")
0.0172

Asked: Entry 5L1721H23_6L3H3 (antibody, V domains shown, Tested as full-length IgG; also called heavy UC-H5H23-6H3, light UC-H5L1721-6L3) VH: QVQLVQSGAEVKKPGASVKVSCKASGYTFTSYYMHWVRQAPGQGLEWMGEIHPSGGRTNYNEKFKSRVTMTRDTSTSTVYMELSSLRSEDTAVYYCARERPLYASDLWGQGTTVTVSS VL: DIQMTQSPSSLSASVGDRVTITCKASQDVHTAVAWYQQKPGKAPKLLIYHASYRYTGVPSRFSGSGSGTDFTFTISSLQPEDIATYYCQQRYSLWRTFGQGTKLEIK has what koff?
Given back: 0.000516
